Reference for the values: ChEMBL document CHEMBL5058577

# System: HEK-293T
# assay-comment: Multiplex assay against HEK293T
# Assay type: toxicity, cell-based
# condition-info: human, 48 h, 10 µM, compound concentration 10 uM, replicate 2
Reported Population Tubulin-Different-Phenotype (%) values follow for various compounds
The reply should contain only the number, in %.

The cases that follow already have their Population Tubulin-Different-Phenotype (%) on record.
>>> print(df.to_string())
                                   compound  quantitative_result
0  CN[C@@H](C)C(=O)N[C@H](C(=O)N1CCC[C@H]1C(=O)Nc1snnc1-c1ccccc1)C1CCCCC1                   52
1  C[C@H](N)COC(=O)[C@@H](CCCCN)NC(=O)Cc1c(-c2ccc3ccccc3c2)[nH]c2c1ccc1ccccc12                   35
2  CCCCCC(O)/C=C/[C@H]1C(=O)CC(O)C1C/C=C\CCCC(=O)O (some centres undefined)                    8

Input: Form field: reported Population Tubulin-Different-Phenotype (%) of Cl.N=C(N)NC(=O)Cc1c(Cl)cccc1Cl [GUANFACINE HYDROCHLORIDE]
Output: 20

Input: Form field: reported Population Tubulin-Different-Phenotype (%) of COC[C@@H](c1ccc(C(F)(F)F)cc1)N1CCN(C2(C)CCN(C(=O)c3c(C)ncnc3C)CC2)C[C@@H]1C.O=C(O)/C=C\C(=O)O [VICRIVIROC MALEATE]
Output: 38

Input: Form field: reported Population Tubulin-Different-Phenotype (%) of CN(C)C(=O)Cn1cc(-c2ccc(-c3cncc4ccccc34)cc2)cn1
Output: 23

Input: Form field: reported Population Tubulin-Different-Phenotype (%) of Cc1onc(-c2ccccc2Cl)c1C(=O)N(C)c1ccc(Cl)cc1
Output: 16

Input: Form field: reported Population Tubulin-Different-Phenotype (%) of Cc1c(CC(=O)O)c2cccnc2n1Cc1ccc(S(C)(=O)=O)cc1C(F)(F)F
Output: 17

Input: Form field: reported Population Tubulin-Different-Phenotype (%) of CN1CCN(c2cc(-c3ccccc3)nc(N)n2)CC1
Output: 11
